- Tested on: U2OS
- assay_summary: cell viability relative to DMSO; higher = less toxic
- measurement_context: 72 h; 1 nM
outcome_measure: cell viability (%)
Just the number in %, nothing appended.

In the examples that follow, each entry is paired with its recorded cell viability.
> print(dat)
                                   molecule  target.or.system  value
1                       CCOC(=O)c1ccc(N)cc1              U2OS   99.3
2  COc1cccc(OC)c1C(=O)N[C@@H]1C(=O)N2[C@@H]1SC(C)(C)[C@@H]2C(=O)O              U2OS    105
3       O=C(O)[C@H]1CN(C/C=C/P(=O)(O)O)CCN1              U2OS   96.3
4  Cc1cc2c(cc1CC(=O)c1sccc1S(=O)(=O)Nc1onc(C)c1Cl)OCO2              U2OS   99.6
5          CCOP(=S)(OCC)Oc1nc(Cl)c(Cl)cc1Cl              U2OS   92.3
6  C#CCC(Cc1cnc2nc(N)nc(N)c2n1)c1ccc(C(=O)N[C@@H](CCC(=O)O)C(=O)O)cc1 (some centres not stated) [pralatrexate]              U2OS    105
7  C/C=C1/[C@H](O[C@@H]2O[C@H](CO)[C@@H](O)[C@H](O)[C@H]2O)OC=C(C(=O)OC)[C@H]1CC(=O)OCCc1ccc(O)c(O)c1              U2OS    105
8  CC(=O)C1=C(O)[C@@H]2[C@H]3c4c[nH]c5cccc(c45)C[C@H]3C(C)(C)N2C1=O              U2OS    102

As a next step, examine the molecule that follows.
Ask: # input molecule: Cc1[nH]c(/C=C2\C(=O)Nc3cc(-c4ccccc4)ccc32)c(C)c1CCC(=O)O [SU16f] ; wanted: its cell viability
Reply: 104

Values were extracted from the supplement of paper PMC13380429.
